For each record, write down the corresponding Percent Control.
System: DDR1;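 note: KINOMEscan scanMAX binding as percent activity remaining versus control; lower means stronger binding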
condition.set: Compound Concentration (nM):1000
I only need the number, in %, no unit after it.

## Task Give the value of Percent Control reported for the following: Cl.O=C(Nc1ccc(Oc2ccc3[nH]c(NC(=O)c4ccco4)nc3c2)cc1)Nc1cc(C(F)(F)F)ccc1F [GW683134A]
## Result 0

## Task Give the value of Percent Control reported for the following: CN1CCN(C(=O)c2ccc(NC(=O)Nc3ccc(N(C)c4ccnc(Nc5ccc(CS(C)(=O)=O)cc5)n4)cc3)cc2)CC1.Cl [GW830263A]
## Result 0

## Task Give the value of Percent Control reported for the following: Nc1ncnc2occ(-c3ccc(NC(=O)Nc4cc(C(F)(F)F)ccc4F)cc3)c12 [GW770249X]
## Result 0

## Task Give the value of Percent Control reported for the following: COc1cccc(-n2ncc3c(N/N=C/c4ccncc4)ncnc32)c1 [GW784752X]
## Result 100

## Task Give the value of Percent Control reported for the following: NS(=O)(=O)c1ccc(Nc2ncc(-c3ccccc3)o2)cc1 [GW572399X]
## Result 100

## Task Give the value of Percent Control reported for the following: COc1cc2ncn(-c3cc(O[C@H](C)c4ccccc4Cl)c(C(N)=O)s3)c2cc1OC [GSK237701A]
## Result 100

## Task Give the value of Percent Control reported for the following: Cl.O=C(Nc1ccc(Oc2ccc3[nH]c(NC(=O)c4ccccc4)nc3c2)cc1)Nc1cc(C(F)(F)F)ccc1F [GW709042A]
## Result 0

## Task Give the value of Percent Control reported for the following: COC(=O)Nc1nc2ccc(Oc3ccc(NC(=O)Nc4cc(C(F)(F)F)ccc4F)cc3)cc2s1.Cl [GW693917A]
## Result 0

## Task Give the value of Percent Control reported for the following: CCn1c(-c2nonc2N)nc2c(C#CC(C)(C)O)nc(OCCNC)cc21.Cl
## Result 100

## Task Give the value of Percent Control reported for the following: COc1cc(C)c(N(C)C(=O)CN(C)C)cc1Nc1nc(Nc2cccc(F)c2C(N)=O)c2cc[nH]c2n1
## Result 78

## Task Give the value of Percent Control reported for the following: CC(C)COC(=O)c1ccc2c(c1)/C(=C/Nc1ccc(S(N)(=O)=O)cc1)C(=O)N2 [GW416981X]
## Result 100

## Task Give the value of Percent Control reported for the following: COc1cc(N2CCN(C(C)C)CC2)ccc1Nc1nc(Nc2ccc(F)cc2C(=O)NC[C@@H](O)CO)c2cc[nH]c2n1 [GSK1392956A]
## Result 98

## Task Give the value of Percent Control reported for the following: NS(=O)(=O)c1ccc(N/N=C2\C(=O)Nc3ccc(C(=O)NCc4ccncc4)cc32)cc1 [GW300657X]
## Result 100

## Task Give the value of Percent Control reported for the following: CN(C)c1cc2c(Nc3ccc4c(cnn4Cc4ccccc4)c3)ncnc2cn1 [GW282974X]
## Result 66

## Task Give the value of Percent Control reported for the following: CCc1ccc(Oc2nccc(-c3c(-c4ccc(F)cc4)ncn3C3CCNCC3)n2)cc1
## Result 73

## Task Give the value of Percent Control reported for the following: COc1cc(C=NNc2ncnc3c2cnn3-c2ccccc2)ccc1O [GW513184X]
## Result 100

Reference source: paper PMC7826789
